systemUnderTest: UniProt:P25106
assayProcedure: Tango CXCR7-bla U2OS beta-arrestin recruitment assay (beta-lactamase reporter, FRET), antagonism of CXCL12/SDF1-α
Format: cell-based
studyConditions: antagonistic effect on CXCR7; Tango CXCR7-bla U2OS cells, CXCL12/SDF1-α at its EC80
Assign labels as follows, please: Met for IC50 below 0.09 µM; Not met for IC50 equal to or exceeding 0.09 µM.

- O=C(N[C@@H]1CCN(CC2CC2)C[C@H]1C(=O)N1CC[C@@H]1c1ccccc1)c1cc(-c2ccc(F)cc2F)on1 [Example 4.067b]: Met
- N#CC1(NC(=O)[C@@H]2CN(C3CCCC3)CC[C@H]2NC(=O)c2cc(-c3ccc(F)cc3F)on2)CCC1: Met
- CN(CCc1ccccn1)C(=O)[C@@H]1CN(C2CCCC2)CC[C@H]1NC(=O)c1cc(-c2ccc(F)cc2F)on1: Met
- O=C(N[C@@H]1CCN(C2CCC2)C[C@H]1C(=O)NCC1(c2ccc(Cl)cc2)CC1)c1cc(-c2ccc(F)cc2F)on1: Not met
- O=C(N[C@@H]1CCN(CC2CC2)C[C@H]1C(=O)NC1(c2ccccn2)CC1)c1ncc(-c2ccc(F)cc2F)o1 (racemic): Not met
- CCOCCN(C)C(=O)[C@@H]1CN(C2CCCCC2)CC[C@H]1NC(=O)c1cc(-c2ccc(F)cc2F)on1 (racemic): Not met
- C[C@@H](NC(=O)[C@@H]1CN(CC2CC2)CC[C@H]1NC(=O)c1cn(-c2ccc(F)cc2F)nn1)C1CCC1 (relative stereo): Not met
- O=C(N[C@@H]1CCN(C2CCCCC2)C[C@H]1C(=O)N1CCC1)c1cc(-c2c(F)cc(F)cc2F)on1 (racemic): Not met
- Cc1cc(CNC(=O)[C@@H]2CN(C3CCCCC3)CC[C@H]2NC(=O)c2cc(-c3ccc(F)cc3F)on2)nn1C (racemic): Not met
- CN(C)C(=O)[C@@H]1CN(C2CCCC(C)(C)C2)CC[C@H]1NC(=O)c1cc(-c2ccc(F)cc2F)on1 (stereo partly shown): Not met
- O=C(N[C@H]1CCN(CC2CC2)C[C@@H]1C(=O)NC1(c2ncccn2)CC1)c1ncc(-c2ccc(F)cc2F)o1: Met
- Cc1csc(CNC(=O)[C@@H]2CN(C3CCCCC3)CC[C@H]2NC(=O)c2cc(-c3ccc(F)cc3F)on2)n1 (racemic): Not met

* * *

systemUnderTest: human chemokine receptor CXCR7 (Homo sapiens (Human))
Sequence (P25106 whole entry): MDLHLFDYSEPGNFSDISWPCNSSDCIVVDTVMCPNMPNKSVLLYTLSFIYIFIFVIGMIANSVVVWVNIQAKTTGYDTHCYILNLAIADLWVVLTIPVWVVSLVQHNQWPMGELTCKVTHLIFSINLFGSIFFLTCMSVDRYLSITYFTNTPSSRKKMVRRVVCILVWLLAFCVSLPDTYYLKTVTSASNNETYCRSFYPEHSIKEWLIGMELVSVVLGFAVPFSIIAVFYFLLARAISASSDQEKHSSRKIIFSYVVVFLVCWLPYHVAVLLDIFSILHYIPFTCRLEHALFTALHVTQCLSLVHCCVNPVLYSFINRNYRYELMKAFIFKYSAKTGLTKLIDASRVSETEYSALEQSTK
assayProcedure: Tango CXCR7-bla U2OS beta-arrestin recruitment assay (beta-lactamase reporter, FRET), antagonism of CXCL12/SDF1-α;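 also: compounds preincubated 15 min before CXCL12 addition, then 22 h at 37 °C, FRET emission ratio read with CCF4-AM substrate after 2 h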
Type: cell-based
studyConditions: antagonistic effect on CXCR7; Tango CXCR7-bla U2OS cells, CXCL12/SDF1-α at its EC80
Assign labels as follows, please: Criterion met for IC50 below 300 nM; Criterion not met for IC50 equal to or exceeding 300 nM.

* C[C@@H]1CCC[C@H]1N1CC[C@@H](NC(=O)c2cn(-c3ccc(F)cc3F)nn2)[C@H](C(=O)N(C)C)C1 (relative stereo) | Criterion met
* O=C(N[C@@H]1CCN(C2CCCCC2)C[C@H]1C(=O)NCCOC(F)(F)F)c1cc(-c2ccc(F)cc2F)on1 (racemic) | Criterion not met
* O=C(N[C@H]1CCN(CC2CC2)C[C@@H]1C(=O)NC1(c2nccc[n+]2[O-])CC1)c1cc(-c2ccc(F)cc2F)on1 | Criterion met
* CCN(C)C(=O)[C@@H]1CN(CC2CC2)CC[C@H]1NC(=O)c1cc(-c2ccc(F)cc2F)on1 | Criterion met
* CC(C)CN1CC[C@H](NC(=O)c2cc(-c3ccc(F)cc3F)on2)[C@@H](C(=O)NC2(c3ncccn3)CC2)C1 | Criterion met
* Cc1cc(CNC(=O)[C@@H]2CN(C3CCCCC3)CC[C@H]2NC(=O)c2cc(-c3ccc(F)cc3F)on2)on1 (racemic) | Criterion not met
* O=C(NC1CCN(CC2CC2)CC1C(=O)N1CCCC1c1ncccn1)c1cc(-c2ccc(F)cc2F)on1 (stereo not shown) | Criterion met
* O=C(N[C@H]1CCN(C2CCC2)C[C@@H]1C(=O)NC1(c2ncccn2)CC1)c1ncc(-c2ccc(F)cc2F)o1 | Criterion not met
* Cc1cccnc1C(C)(C)CNC(=O)[C@@H]1CN(C2CCC2)CC[C@H]1NC(=O)c1cc(-c2ccc(F)cc2F)on1 | Criterion not met
* C#CC(C)NC(=O)[C@H]1CN(CC2CC2)CC[C@@H]1NC(=O)c1cc(-c2ccc(F)cc2F)on1 (stereo partly shown) | Criterion met
* O=C(N[C@H]1CCN(CC2CC2)C[C@@H]1C(=O)NC1(c2ccccc2F)CC1)c1cc(-c2ccc(F)cc2F)on1 | Criterion met
* O=C(N[C@H]1CCN(C2CCCC2)C[C@@H]1C(=O)NC1(c2cccnn2)CC1)c1cc(-c2ccc(F)cc2F)on1 | Criterion met

Each recorded value in this set is attributed to patent US11306078B2.
